Each entry below carries its reported Ki.
- SUBJECT_OF_TEST: recombinant human ALK5 (TGF-βR1) protein (Homo sapiens, UniProt P36897)
- Sequence (P36897 34-503): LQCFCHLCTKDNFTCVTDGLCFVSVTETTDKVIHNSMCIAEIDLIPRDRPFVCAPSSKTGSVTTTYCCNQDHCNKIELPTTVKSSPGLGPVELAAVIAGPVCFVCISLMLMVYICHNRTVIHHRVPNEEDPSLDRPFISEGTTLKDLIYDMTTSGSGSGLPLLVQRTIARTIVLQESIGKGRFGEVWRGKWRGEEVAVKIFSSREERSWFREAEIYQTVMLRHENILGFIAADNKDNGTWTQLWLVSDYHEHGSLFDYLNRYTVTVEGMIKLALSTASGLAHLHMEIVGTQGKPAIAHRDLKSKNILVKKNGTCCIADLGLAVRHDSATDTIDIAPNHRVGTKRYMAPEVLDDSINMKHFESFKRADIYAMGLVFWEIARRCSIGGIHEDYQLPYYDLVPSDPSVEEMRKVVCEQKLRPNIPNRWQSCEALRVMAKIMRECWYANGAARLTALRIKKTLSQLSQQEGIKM
- EXPERIMENT_DESCRIPTION: Biochemical ALK5 (TGF-βR1) assay to measure pKi (LANCE Ultra ULight kinase assay)
- EXPERIMENTAL_CONTEXT: apparent pKi, converted from pIC50 by Cheng-Prusoff

In the examples that follow, each entry is paired with its recorded Ki.
CHEMICAL_STRUCTURE: Cc1cccc(-c2cccc(Nc3ccnc(Nc4ccc(N5CCOCC5)cc4)n3)n2)n1
SUBJECT_OF_TEST: recombinant human ALK5 (TGF-βR1) protein (Homo sapiens, UniProt P36897)
Ki: 3.98 to 31.6 nM
//
CHEMICAL_STRUCTURE: COC(=O)c1cc(Nc2ccnc(Nc3ccc(N4CCN(C)CC4)cc3)n2)nc(-c2cccc(C)n2)n1
SUBJECT_OF_TEST: recombinant human ALK5 (TGF-βR1) protein (Homo sapiens, UniProt P36897)
Ki: 0.0398 to 0.316 nM
//
CHEMICAL_STRUCTURE: Cc1cccc(-c2nccc(Nc3ccnc(Nc4csc(C(=O)N[C@@H]5CCNC5)c4)n3)n2)n1
SUBJECT_OF_TEST: recombinant human ALK5 (TGF-βR1) protein (Homo sapiens, UniProt P36897)
Ki: ≤ 0.0316 nM

Q: If you can, please state the reported Ki value of `COc1ccc(Nc2nccc(Nc3ccnc(-c4cccc(C)n4)n3)n2)cc1NC(=O)C1CCNCC1` .
Result: 0.0398 to 0.316 nM

Q: Next entry: `Cc1cccc(-c2nccc(Nc3ccnc(Nc4cccc(CO)c4)n3)n2)n1`
Result: 0.0398 to 0.316 nM

Q: Next entry: `Cc1cccc(-c2nc(Nc3ccnc(Nc4cccc(C(=O)O)c4)n3)c3cccn3n2)n1`
Result: 0.398 to 3.16 nM

Q: Next entry: `CCOC(=O)Cc1cc(Nc2nccc(Nc3ccnc(-c4cccc(C)n4)n3)n2)ccc1N1CCNCC1`
Result: 0.0398 to 0.316 nM

Q: Next entry: `Cc1cccc(-c2nccc(Nc3ccnc(Nc4ccc(C(=O)O[C@H]5CCNC5)nc4)n3)n2)n1`
Result: 0.0398 to 0.316 nM

###

- SUBJECT_OF_TEST: recombinant human ALK5 (TGF-βR1) protein (Homo sapiens)
- EXPERIMENT_DESCRIPTION: Biochemical ALK5 (TGF-βR1) assay to measure pKi (LANCE Ultra ULight kinase assay)
- EXPERIMENTAL_CONTEXT: apparent pKi, converted from pIC50 by Cheng-Prusoff
pKi: −log10 of the molar value.
Each entry below carries its reported pKi.

In the examples that follow, each entry is paired with its recorded pKi.
MOLECULE: Cc1cccc(-c2nccc(Nc3ccnc(Nc4ccc(N5CCCC(C(=O)OCC6CNC6)C5)cc4)n3)n2)n1 (stereo not shown)
pKi: 9.50 to 10.40

MOLECULE: Cc1cccc(-c2nccc(Nc3ccnc(Nc4ccc(NC(=O)C5CCN(C6CCOCC6)CC5)cc4)n3)n2)n1
pKi: 9.50 to 10.40

MOLECULE: Cc1cccc(-c2nccc(Nc3ccnc(Nc4ncc(C5=CCNC5)s4)n3)n2)n1
pKi: 8.50 to 9.40

Please turn your attention to the following entry.
Q: If you can, please state the reported pKi value of `Cc1cccc(-c2nccc(Nc3ccnc(Nc4ccc(C(=O)OC[C@H]5CCCN5)nc4)n3)n2)n1` .
Result: 9.50 to 10.40
